Tested on: LG0567-F671-PDC KRAS tumor spheroid viability;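 further: drug exposure lasted seven days after spheroids formed for three days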
protocol: Anticancer human tumor LG0567-F671-PDC patient-derived lung adenocarcinoma cell line growth inhibition [KRAS2]
condition parameters: second compound 3.16 µM; first compound 1 µM; stronger effect = lower value; spheroids with HUVEC and MSC
Mark true only for viability, T/C values smaller than 7%; exact matches and larger values are false.

Check out these entries, answers already filled in.
1. CC(C)NCC(C(=O)N1CCN(c2ncnc3c2C(C)CC3O)CC1)c1ccc(Cl)cc1 (configuration not stated) + C=CC(=O)N1CCN(c2nc(=O)n(-c3c(C)ccnc3C(C)C)c3nc(-c4c(O)cccc4F)c(F)cc23)C(C)C1
false
2. O=C(c1cc(Cc2n[nH]c(=O)c3ccccc23)ccc1F)N1CCN(C(=O)C2CC2)CC1 + CNCc1ccccc1-c1csc(C(C)Nc2nc(C)nc3cc(OC)c(OC)cc23)c1
true
3. CC1COCCN1c1cc(-c2ccnn2C)c2ccnc(-c3ccn[nH]3)c2n1 (configuration not stated) + CC1OCC2(CCN(c3cnc(Sc4ccnc(N)c4Cl)c(N)n3)CC2)C1N
false

In plain terms, does COc1cc2nccc(Oc3ccc(NC(=O)C4(C(=O)Nc5ccc(F)cc5)CC4)cc3)c2cc1OC + CC1OCC2(CCN(c3cnc(Sc4ccnc(N)c4Cl)c(N)n3)CC2)C1N come in under 7% for viability, T/C?
true

In plain terms, does CC1(C)CCC(CN2CCN(c3ccc(C(=O)NS(=O)(=O)c4ccc(NCC5CCOCC5)c([N+](=O)[O-])c4)c(Oc4cnc5[nH]ccc5c4)c3)CC2)=C(c2ccc(Cl)cc2)C1 + COc1cc2nc(C)nc(NC(C)c3cc(N)cc(C(F)(F)F)c3)c2cc1OC1CCOC1 come in under 7% for viability, T/C?
false

In plain terms, does CC(=O)OC12COC1CC(O)C1(C)C(=O)C(O)C3=C(C)C(OC(=O)C(O)C(NC(=O)OC(C)(C)C)c4ccccc4)CC(O)(C(OC(=O)c4ccccc4)C21)C3(C)C (configuration not stated) + CNCc1ccccc1-c1csc(C(C)Nc2nc(C)nc3cc(OC)c(OC)cc23)c1 come in under 7% for viability, T/C?
true

In plain terms, does CC1COCCN1c1cc(-c2ccnn2C)c2ccnc(-c3ccn[nH]3)c2n1 (configuration not stated) + COc1cc2nc(C)nc(NC(C)c3cc(N)cc(C(F)(F)F)c3)c2cc1OC1CCOC1 come in under 7% for viability, T/C?
true

In plain terms, does COc1cc2nccc(Oc3ccc(NC(=O)C4(C(=O)Nc5ccc(F)cc5)CC4)cc3)c2cc1OC + C=CC(=O)N1CCN(c2nc(=O)n(-c3c(C)ccnc3C(C)C)c3nc(-c4c(O)cccc4F)c(F)cc23)C(C)C1 come in under 7% for viability, T/C?
false

In plain terms, does CC(C)NCC(C(=O)N1CCN(c2ncnc3c2C(C)CC3O)CC1)c1ccc(Cl)cc1 (configuration not stated) + CC1OCC2(CCN(c3cnc(Sc4ccnc(N)c4Cl)c(N)n3)CC2)C1N come in under 7% for viability, T/C?
true

In plain terms, does CC1COCCN1c1cc(-c2ccnn2C)c2ccnc(-c3ccn[nH]3)c2n1 (configuration not stated) + C=CC(=O)N1CCN(c2nc(=O)n(-c3c(C)ccnc3C(C)C)c3nc(-c4c(O)cccc4F)c(F)cc23)C(C)C1 come in under 7% for viability, T/C?
false

In plain terms, does CCNC(=O)CC1N=C(c2ccc(Cl)cc2)c2cc(OC)ccc2-n2c(C)nnc21 (configuration not stated) + COc1cc2nc(C)nc(NC(C)c3cc(N)cc(C(F)(F)F)c3)c2cc1OC1CCOC1 come in under 7% for viability, T/C?
false

In plain terms, does CCN1CCN(Cc2ccc(Nc3ncc(F)c(-c4cc(F)c5nc(C)n(C(C)C)c5c4)n3)nc2)CC1 + CNCc1ccccc1-c1csc(C(C)Nc2nc(C)nc3cc(OC)c(OC)cc23)c1 come in under 7% for viability, T/C?
true
